TEST SYSTEM: IDO in Hela cells (Homo sapiens, UniProt P14902)
Construct: endogenous in cells
Sequence (P14902 whole entry): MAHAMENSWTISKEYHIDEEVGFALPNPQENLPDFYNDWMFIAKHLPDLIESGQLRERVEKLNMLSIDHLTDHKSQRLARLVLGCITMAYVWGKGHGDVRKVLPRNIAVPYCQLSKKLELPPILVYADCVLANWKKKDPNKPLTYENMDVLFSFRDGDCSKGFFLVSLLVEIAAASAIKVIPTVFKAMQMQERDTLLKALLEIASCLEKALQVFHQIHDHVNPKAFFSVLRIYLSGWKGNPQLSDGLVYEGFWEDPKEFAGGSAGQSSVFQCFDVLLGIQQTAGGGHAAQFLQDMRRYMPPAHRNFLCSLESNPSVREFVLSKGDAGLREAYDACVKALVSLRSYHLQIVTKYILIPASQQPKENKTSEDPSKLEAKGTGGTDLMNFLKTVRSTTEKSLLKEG
METHOD NOTES: Test of cellular activity (kynurenine formation in interferon γ stimulated Hela cells)
SETUP CONDITIONS: head prints IPS cells, method: Hela cells, 48 h incubation, read at 480 nm
pIC50: −log10 of the molar value.
PROPERTY MEASURED: pIC50

COMPOUND	TEST VALUE
O=C(Nc1cccc(C(F)(F)F)c1)C1CC2(CCC(c3ccnc4ccc(F)cc34)CC2)C1 (stereo not drawn)	< 8.00
O=C(Nc1cccc(Br)c1)C1CC2(CCC(c3ccnc4ccc(F)cc34)CC2)C1 (single isomer, unassigned)	< 8.00

Consider the compound O=C(Nc1ccc(Cl)cc1)C1CC2(C1)CC(c1ccnc3ccc(F)cc13)C2 (racemic) and give its measured pIC50.
< 8.52
